system: KB-3-1; assay: Cytotoxic Profiling of Annotated Libraries Using Quantitative High-Throughput Screening (AID 1296008); settings: Five cell lines viability, CellTiter-Glo ATP luminescence, 48-72 h; stronger effect = lower value; note: % is set by controls: 0 for no effect and ±100 for the full control effect; nearly all actives have a fitted effect of over 60% in size
Inconclusive results are not listed.
Label yes (1) when max response is strictly below -10%; at or above that, label no (0).

Input: Say whether its max response is strictly beneath -10%. Entry: COc1cc(O)c2c(c1)C1=C[C@H](O)[C@@H](O)C[C@]1(C)OC2=O
Output: no (0)

Input: Hello, I'm reviewing records and need to know if max response of CC1(C)CC2=C3C=CC4C5(C)CCC(O)C(C)(C)C5CCC4(C)C3(C)CCC2(C)C(O)C1 (centres undefined) is below -10%. Could you check?
Output: no (0)

Input: Consider N#Cc1cnc2cnc(NCc3cccnc3)cc2c1Nc1ccc(F)c(Cl)c1 . Does its max response lie strictly below -10%?
Output: yes (1)

Input: In the record for COC1CC(OC2CCC3(C)C(=CCC4C3C(OC(C)=O)C(OC(=O)/C=C/c3ccccc3)C3(C)C(C(C)O)CCC43O)C2)OC(C)C1OC1CC(OC)C(OC2OC(C)C(OC3OC(CO)C(O)C(O)C3O)C(OC)C2O)C(C)O1 (centres undefined) , is max response less than -10%?
Output: no (0)

Input: Determine whether this compound shows max response lower than -10% (ties excluded): COc1ccc(C2(O)CCC(N3CC[C@@H](NC(=O)CNC(=O)c4cccc(C(F)(F)F)c4)C3)CC2)cn1 (some centres undefined)
Output: yes (1)

Input: Please check: max response for CC1CC(=O)C2=C(CCC3(O)C(O)c4c(O)cccc4C(=O)C23O)C1 (centres undefined) , strictly under -10% or not?
Output: no (0)

Input: Strictly below -10% in max response? CNC(C)C(=O)NC(C(=O)N1CCCC1c1nc(C(=O)c2ccc(F)cc2)cs1)C1CCCCC1 (centres undefined)
Output: no (0)

Input: Please let me know if COC1/C=C/C(C)(O)C(SCC(N)C(=O)O)CC(=O)OC(C)C(C)CC/C=C/1C (centres undefined) shows max response below -10%.
Output: no (0)

Input: Item Cc1c(C(=O)Nc2ccc(N3CC(C)OC(C)C3)nc2)cccc1-c1ccc(OC(F)(F)F)cc1 (centres undefined) : max response beneath -10%, strictly?
Output: yes (1)

----------
Assay: qHTS to identify inhibitors of the type 1 interferon - major histocompatibility complex class I in skeletal muscle: primary screen against the NCATS Mechanism Interrogation Plate v5.0 (MIPE) Libary (AID 1347411); note: nearly all actives have a fitted effect of over 65% in size
Settings: iHSKM cells + IFN-b, HiBiT-tagged MHC-I luminescence, 24 h; series mostly up to 45.8 µM
From the text: Assay Submitter (PI): Travis B. Kinder Ph.D. & James Inglese Ph.D. Assay Development and Screening Technology Laboratory (ADST) National Center for Advancing Translational Sciences (NCATS), Rockville, MD National Institute of Health (NIH), Bethesda, Maryland […] 7; Detector; 5 sec; Measure luminescence with ViewLux 1430 Ultra HTS (Perkin Elmer). […]
Records with an inconclusive call do not appear. The source made the active and inactive calls. Calls come from the whole dose curve; as a rule, active = well fitted inhibition curve with a large enough effect; inconclusive = small, poorly fitted or top-dose-only effect; inactive = no such curve, though single readings can be large or run the other way.
Write down one outcome, taken from active, inactive

Input: Can you look up the reported call for CN1CCN(c2ccc(C(=O)Nc3n[nH]c4ccc(Cc5cc(F)cc(F)c5)cc34)c(NC3CCOCC3)c2)CC1 for me?
Output: active

Input: Check the results log: what was the call for CN(C)C/C=C/C(=O)Nc1cccc(C(=O)Nc2cccc(Nc3ncc(Cl)c(-c4c[nH]c5ccccc45)n3)c2)c1 ?
Output: active

Input: Returns: the outcome recorded for CCOCc1nc2c(N)nc3ccccc3c2n1CC(C)(C)O in this assay.
Output: inactive

Input: Just curious, what result did CC(C)(C)C(=O)CN1C(=O)[C@H](NC(=O)Nc2cccc(C(=O)O)c2)CN(C2CCCCC2)c2ccccc21 get here?
Output: inactive

Input: Which outcome was entered for the compound CCN1CCN(Cc2ccc(NC(=O)c3ccc(C)c(NC(=O)c4cncc(-c5cccs5)c4)c3)cc2C(F)(F)F)CC1 in this test?
Output: active

Input: What outcome does the record of this test show for CN1CCN(C2CCC(n3cc(-c4ccc(Oc5ccccc5)cc4)c4c(N)ncnc43)CC2)CC1 (centres undefined) ?
Output: active

Input: Fill in: this test's call for Cc1nc([C@](C)(O)CO)sc1-c1cnc(N)c(O[C@H](C)c2cc(F)ccc2-n2nccn2)c1 is ___
Output: inactive

Input: Short answer needed: outcome of this test for CS(=O)(=O)N1CCC(NC(=O)c2[nH]ncc2NC(=O)c2c(Cl)cccc2Cl)CC1 ?
Output: active

Input: Name the outcome recorded for CC(O)c1cc(C(=O)N[C@@H](C)Cn2ccc(-c3ccc(C#N)c(Cl)c3)n2)n[nH]1 (some centres undefined) in the assay.
Output: inactive

----------
system: Es-2; test: Primary qHTS to identify gynecologic anti-cancer compounds using libraries of approved drugs and bioactive compounds (AID 1345084); conditions: Gynecologic cancer cell panel viability, ATPlite luminescence, 48 h; series mostly up to 57.5 µM; note: nearly all actives have a fitted effect of over 55% in size
Records with an inconclusive call do not appear. Active and inactive are the calls of the source. Calls come from the whole dose curve; as a rule, active = well fitted cell-killing curve with a large enough effect; inconclusive = small, poorly fitted or top-dose-only effect, or effect the other way; inactive = flat fitted curve, though single readings scatter. Where a SMILES comes first, the peptide text is derived from it. [ ]: non-standard residue; d: D form. dPhe(4-Cl) = N[C@H](Cc1ccc(Cl)cc1)C(=O)O; d2Nal = N[C@H](Cc1ccc2ccccc2c1)C(=O)O; dCit = NC(=O)NCCC[C@@H](N)C(=O)O; d3Pal = N[C@H](Cc1cccnc1)C(=O)O
Write down the outcome that applies. Available outcomes: 1 (active), 0 (inactive)

Input: Look up the recorded call for CC(=O)N[C@H](Cc1ccc2ccccc2c1)C(=O)N[C@H](Cc1ccc(Cl)cc1)C(=O)N[C@H](Cc1cccnc1)C(=O)N[C@@H](CO)C(=O)N[C@@H](Cc1ccc(O)cc1)C(=O)N[C@H](CCCNC(N)=O)C(=O)N[C@@H](CC(C)C)C(=O)N[C@@H](CCCN=C(N)N)C(=O)N1CCC[C@H]1C(=O)N[C@H](C)C(N)=O (Ac-[d2Nal][dPhe(4-Cl)][d3Pal]SY[dCit]LRP[dA]-NH2) in this test.
Output: 0

Input: Answer briefly: the call reported for CC(=O)OC1C(=O)C2(C)C(O)CC3OCC3(OC(C)=O)C2C(OC(=O)c2ccccc2)C2(O)CC(OC(=O)C(O)C(NC(=O)c3ccccc3)c3ccccc3)C(C)=C1C2(C)C (stereo unspecified) in this assay.
Output: 1

Input: Recorded call for C[C@H]1Oc2cc(cnc2N)-c2c(nn(C)c2C#N)CN(C)C(=O)c2ccc(F)cc21 ?
Output: 0

Input: In this assay, the call recorded for Nc1nc2c(ncn2[C@@H]2O[C@@H]3COP(=O)(O)O[C@H]3[C@H]2O)c(=O)[nH]1 was what?
Output: 0

Input: Tell me the recorded outcome of this test for COc1cc2c(cc1OC)N1C(=O)C[C@]34C=CCN5CC[C@@H]2[C@@H](CC3)[C@]514 .
Output: 0

Input: Lab log entry: Cc1cc(C)c2c(N)c(C(=O)NCc3ccc(Cl)cc3)sc2n1 — outcome as called in the assay?
Output: 0

----------
system: KB-3-1; assay: Cytotoxic Profiling of Annotated Libraries Using Quantitative High-Throughput Screening (AID 1296008); details: Five cell lines viability, CellTiter-Glo ATP luminescence, 48-72 h; stronger effect = lower value; note: % is set by controls: 0 for no effect and ±100 for the full control effect; nearly all actives have a fitted effect of over 60% in size
Results filed as inconclusive are left out. Active and inactive are the calls of the source. Calls come from the whole dose curve; as a rule, active = well fitted inhibition curve with a large enough effect; inconclusive = small, poorly fitted or top-dose-only effect; inactive = flat fitted curve, though single readings scatter.
Reported endpoint: max response

Input: Looking for the measured max response of C=C1CCC2C(C)(C)C(O)CCC2(C)C1CCC(C)CCO (stereo unspecified) , can you help?
Output: -10.1% (inactive)

Input: Look at this compound and give its reported max response. CO[C@H]1C[C@@H]2CC[C@@H](C)[C@@](O)(O2)C(=O)C(=O)N2CCCC[C@H]2C(=O)O[C@H]([C@H](C)C[C@@H]2CC[C@H](n3cnnn3)[C@H](OC)C2)CC(=O)[C@H](C)/C=C(\C)[C@@H](O)[C@@H](OC)C(=O)[C@H](C)C[C@H](C)/C=C/C=C/C=C/1C
Output: -0.0133% (inactive)

Input: Using the record for CC1CC2OC3(OC2C(C)(C)O)C1C1(C)CCC24CC25CCC(O[C@@H]2OC[C@@H](O)[C@H](O)[C@H]2O)C(C)(C)C5CC=C4C1(C)C3O (stereo partly specified) , report its max response.
Output: 5.34% (inactive)

Input: Fill in: max response of CC(c1ncncc1F)C(O)(Cn1cncn1)c1ccc(F)cc1F (stereo unspecified) is ___
Output: 0.345% (inactive)

Input: What does the record list as max response for CC1(C)CC[C@]23CO[C@@]4(CCC5[C@@]6(C)CC[C@H](O[C@@H]7OC[C@H](O[C@@H]8O[C@H](CO)[C@@H](O)[C@H](O)[C@H]8O)[C@H](O)[C@H]7O[C@@H]7O[C@H](CO)[C@@H](O[C@@H]8O[C@H](CO)[C@@H](O)[C@H](O)[C@H]8O)[C@H](O)[C@H]7O)[C@@](C)(CO)C6CC[C@@]5(C)[C@]4(C)C[C@H]2OC2OCC(O)C(O)C2O)C3C1 (stereo partly specified) ?
Output: -11.5% (inactive)

Input: What measured max response goes with O=C(C(c1ccccc1)c1ccccc1)N1CCN(CC(O)COc2cccc3ncccc23)CC1 (stereo unspecified) ?
Output: -28.1% (inactive)
